- Test system: NLRP3-inflammasome
- measurement notes: In vitro stimulation of porcine whole blood with LPS and ATP, IL-1β release
- Assay type: cell-based
- settings: porcine whole blood, LPS 1 µg/mL 3 h, then 5 mM ATP 1 h; read-out: half maximal inhibitory concentration (IC50), IL-1β release
measurement type: pIC50
Convention used: pIC50 is expressed as -log10 of the molar concentration.

Input line: Given the molecule CCN1CCC(S(=O)(=O)[N-]C(=O)Nc2c3c(cc4c2CCC4)CCC3)CC1.[K+] , what is its reported pIC50?
Output line: 6.46

All values here come from paper PMC9775177.
